Target: Mitogen-activated protein kinase kinase kinase 2 (Homo sapiens) (UniProt Q9Y2U5)
Test: modulators of MEK5 binding to wildtype MEKK2, primary screen, biochemical, multiplex bead flow cytometry, Alexa488-MEK5 (AID 1531)
Settings: Alexa488-MEK5 binding to MEKK2 WT, at 10 µM, actives lie on both sides
The campaign covered roughly 290,000 compounds. About 3,300 (1.1%) were called active. Cut-off read from the data, not from the text of the source: active = binding response below about 67% or above about 130%; inconclusive = no clear call, values can overlap the other calls; inactive = in between. The sample as a whole holds a higher share of actives than the screen did.
// classify into 1 (active), -1 (inactive)

# COMPOUND, CATEGORY LABEL
records = [
    ("COc1ccc(C2NC(=O)C(=O)/C2=C(\\O)c2ccc(Cl)cc2)cc1OC (stereo unspecified)", -1),
    ("CCOc1cc(C2C(C(=O)c3ccco3)=C(O)C(=O)N2Cc2ccccc2)ccc1O (stereo unspecified)", -1),
    ("Cc1cc(C)c(OCC(=O)N(Cc2cccs2)C2CCS(=O)(=O)C2)c(C)c1 (stereo unspecified)", -1),
    ("COc1cc(CC(=O)N2CCC(n3nccc3NC(=O)C3CC3)CC2)cc(OC)c1OC", -1),
]

Exercise: Please share the test call associated with "O=C(Cc1c(F)cccc1Cl)N1CCN(C(=O)c2ccco2)CC1" .
Key: -1

Exercise: Check "O=C1NCC(=O)N(Cc2ccccc2)/C1=C/c1ccccc1" too.
Key: 1

Exercise: Check "Cc1nc2sccn2c(=O)c1S(=O)(=O)NCCc1ccccc1" too.
Key: -1

* * *

Molecular target: Mitogen-activated protein kinase kinase kinase 2 (Homo sapiens)
Assay: modulators of MEK5 binding to wildtype MEKK2, primary screen, biochemical, multiplex bead flow cytometry, Alexa488-MEK5 (AID 1531)
Conditions: Alexa488-MEK5 binding to MEKK2 WT, at 10 µM, actives lie on both sides
The whole screen tested about 290,000 compounds, of which about 3,300 (1.1%) were called active. The full list was thinned out, with actives kept by preference.
Measured binding response (% of control) by item
// units = %; emit number, no label

Example entries and their recorded answers appear below.
# COMPOUND, binding response (% of control), %
data = [
    ("CCC1CCCCN1CCCNC(=O)Cn1nc(-c2ccccc2)ccc1=O (stereo not given)", 108),
    ("CCC1CCCCN1CCCNC(=O)C1CCC(Cn2c(=O)[nH]c3ccccc3c2=O)CC1 (stereo not given)", 110),
    ("S=C(NCCCc1ccccc1)Nc1ccc(Br)cc1", 100),
    ("C=CCC1(C(=O)N(C)Cc2ccccc2)CCN(C(=O)OC(C)(C)C)CC1", 94),
    ("CCCNC(=O)c1ccc(Cl)c(Cl)c1", 101),
]

Exercise: For "CCN1CCN(CCNC(=O)c2ccc3c(c2)NC(=O)/C(=C\c2ccc(OC)c(OC)c2)S3)CC1" , what is its reported binding response (% of control)?
Key: 131

Exercise: Check Cc1cc(C)cc(C(=O)NC(CC(N)=O)c2ccc(N3CCC(N4CCCCC4)CC3)c([N+](=O)[O-])c2)c1 (stereo not given) too.
Key: 105

Exercise: Check "CCn1c(SCC(=O)NC2CC2)nnc1-c1ccccc1OC" too.
Key: 100

Exercise: Check "CCN1CCN(CCNC(=O)c2ccc(/C=C3/Sc4ccccc4N(Cc4cccc(C)c4)C3=O)cc2)CC1" too.
Key: 220

Exercise: Check CCC(C(=O)NCc1cccnc1)n1nc(C)c2sc3ccccc3c2c1=O (stereo not given) too.
Key: 103

* * *

Molecular target: Mitogen-activated protein kinase kinase kinase 2 (Homo sapiens)
Experiment: modulators of MEK5 binding to wildtype MEKK2, primary screen, biochemical, multiplex bead flow cytometry, Alexa488-MEK5 (AID 1531)
Details: Alexa488-MEK5 binding to MEKK2 WT, at 10 µM, actives lie on both sides
The campaign covered roughly 290,000 compounds. About 3,300 (1.1%) were called active. This is one part of a sample in which actives are shown more often than they occur.
READOUT: binding response (% of control) (%)
// units = %; emit number, no label

Example entries and their recorded answers appear below.
# MOLECULE, REPORTED MEASUREMENT
records = [
    ("CC(C)c1ccc2oc(=O)cc(CN3CCN(Cc4ccccc4)CC3)c2c1", 115),
    ("O=S(=O)(NCC1CC1)c1ccc(F)c(Cl)c1", 97),
    ("Cc1cc(C)c(NC(=O)C[N+](C)(C)CC(O)COc2cccc3ccccc23)c(C)c1 (centres undefined)", 149),
    ("CC(C)C[C@H](NC(=O)C1CCC(CNC(=O)[C@@H]2CCCN2C(=O)OC(C)(C)C)CC1)C(=O)O (some centres undefined)", 103),
    ("COC(=O)CN1C(=O)[C@H]2[C@@H](/C=C/c3ccccc3)N3C(=O)CN(CC4CC4)C(=O)[C@@]3(Cc3ccccc3)[C@H]2C1=O", 104),
]

Exercise: For "CCC1=NN2C(=N)/C(=C/c3cc(C)n(-c4ccccc4)c3C)C(=O)N=C2S1" , what is its reported binding response (% of control)?
Key: 98

Exercise: Check "Cc1cc(C)c(NC(=O)c2oc3ccccc3c2COc2ccccc2)c(C)c1" too.
Key: 100

Exercise: Check "CCS(=O)(=O)C1=NSC2=NC(=O)/C(=C\c3cc(C)n(-c4cccc(OC)c4)c3C)C(=N)N21" too.
Key: 98

Exercise: Check "Cc1cc(C)cc(OCC(=O)NCc2cc(C)nc3ccccc23)c1" too.
Key: 103

* * *

Biological target: Mitogen-activated protein kinase kinase kinase 2 (Homo sapiens) (UniProt Q9Y2U5)
Assay: modulators of MEK5 binding to wildtype MEKK2, primary screen, biochemical, multiplex bead flow cytometry, Alexa488-MEK5 (AID 1531)
Settings: Alexa488-MEK5 binding to MEKK2 WT, at 10 µM, actives lie on both sides
Among all 290,000 compounds or so, about 3,300 (1.1%) were called active. Many of the other results were omitted from the sample, so actives are more common in it than they were.
Measured binding response (% of control) by item
// units = %; emit number, no label

Example entries and their recorded answers appear below.
# MOLECULE, REPORTED MEASUREMENT
rows = [
    ("COC(=O)c1c(NC(=O)COc2ccc(Cl)cc2Cl)sc2c1CC(C)(C)NC2(C)C", 147),
    ("NS(=O)(=O)c1ccc(NC(=S)N2CCCC2)cc1", 100),
]

Exercise: For CCOC(=O)c1ccc2[nH]c3c(c2c1)CCCC3NC=O (stereo unspecified) , what is its reported binding response (% of control)?
Key: 97

Exercise: Check "CCOc1cc2ccccc2cc1C(=O)Nc1ccccn1" too.
Key: 108

Exercise: Check CC(=O)N1c2ccc(S(=O)(=O)N3CCC(C(=O)N4CCN(c5ccccc5)CC4)CC3)cc2CC1C (stereo unspecified) too.
Key: 102

Exercise: Check "COc1ccc(N2CCN(C(=S)Nc3ccc(S(N)(=O)=O)cc3)CC2)cc1" too.
Key: -9

* * *

Molecular target: Mitogen-activated protein kinase kinase kinase 2 (Homo sapiens)
Test: modulators of MEK5 binding to wildtype MEKK2, primary screen, biochemical, multiplex bead flow cytometry, Alexa488-MEK5 (AID 1531)
Conditions: Alexa488-MEK5 binding to MEKK2 WT, at 10 µM, actives lie on both sides
Among all 290,000 compounds or so, about 3,300 (1.1%) were called active. Rule as the data show it: active = binding response below about 67% or above about 130%; inconclusive = no clear call, values can overlap the other calls; inactive = in between. The list comes from a sample in which actives are over-represented; it also holds close analogues and randomly drawn compounds.
// classify into label 1 = active, label 0 = inactive

# COMPOUND, CATEGORY LABEL
records = [
    ("CC(C)(C)n1nc(Cc2cccc3ccccc23)c(C#N)c1N", "label 0"),
    ("CCN1/C(=C\\c2ccc3ccccc3[n+]2CC)Sc2cc(C)ccc21", "label 1"),
    ("O=C(NCc1nnc(SCC(=O)N2CCCCCC2)o1)c1ccc(F)cc1", "label 0"),
    ("Cc1ccc(-c2nn(-c3ccccc3)cc2CN(Cc2ccccc2)C(=O)CCC(=O)O)o1", "label 0"),
    ("Cc1ccc(CN(N=Nc2nonc2N)c2nonc2N)c(C)c1", "label 0"),
    ("CCc1ccc(-c2nn(-c3ccccc3)cc2CSC(=N)N)cc1", "label 1"),
    ("O=C(Nc1cn(-c2ccccc2)nc1-c1ccccc1)c1ccccc1", "label 0"),
    ("C#CCOCCOCCOCCNc1nc(N2CCN(C(=O)[C@H](CCCCN)n3cc([C@@H](N)C(C)CC)nn3)CC2)nc(N2CCN(C(=O)[C@H](Cc3ccc(O)cc3)n3cc([C@@H](N)C(C)CC)nn3)CC2)n1 (stereo not given in full)", "label 1"),
    ("COC(=O)C1=C[C@@H](C(=O)OC)[C@@H]2C3=C(C(=O)[C@]2(C)NC(=O)c2ccccc2)[C@H](C)n2c(=O)n(C)c(=O)n2[C@@H]3C1", "label 0"),
]

Exercise: Please share the test call associated with CNC(C)C#Cc1ccc2sc3cc(OC)c(OC)cc3c(=O)c2c1 (stereo not given) .
Key: label 1
